Values were extracted from patent US12065436B2.

Give IC50 for every item shown.
# experimental target: bovine cardiac myofibrils (full-length cardiac myosin ATPase in the native sarcomere) (Bos taurus (Bovine), UniProt Q9BE39)
# Sequence (Q9BE39 whole entry): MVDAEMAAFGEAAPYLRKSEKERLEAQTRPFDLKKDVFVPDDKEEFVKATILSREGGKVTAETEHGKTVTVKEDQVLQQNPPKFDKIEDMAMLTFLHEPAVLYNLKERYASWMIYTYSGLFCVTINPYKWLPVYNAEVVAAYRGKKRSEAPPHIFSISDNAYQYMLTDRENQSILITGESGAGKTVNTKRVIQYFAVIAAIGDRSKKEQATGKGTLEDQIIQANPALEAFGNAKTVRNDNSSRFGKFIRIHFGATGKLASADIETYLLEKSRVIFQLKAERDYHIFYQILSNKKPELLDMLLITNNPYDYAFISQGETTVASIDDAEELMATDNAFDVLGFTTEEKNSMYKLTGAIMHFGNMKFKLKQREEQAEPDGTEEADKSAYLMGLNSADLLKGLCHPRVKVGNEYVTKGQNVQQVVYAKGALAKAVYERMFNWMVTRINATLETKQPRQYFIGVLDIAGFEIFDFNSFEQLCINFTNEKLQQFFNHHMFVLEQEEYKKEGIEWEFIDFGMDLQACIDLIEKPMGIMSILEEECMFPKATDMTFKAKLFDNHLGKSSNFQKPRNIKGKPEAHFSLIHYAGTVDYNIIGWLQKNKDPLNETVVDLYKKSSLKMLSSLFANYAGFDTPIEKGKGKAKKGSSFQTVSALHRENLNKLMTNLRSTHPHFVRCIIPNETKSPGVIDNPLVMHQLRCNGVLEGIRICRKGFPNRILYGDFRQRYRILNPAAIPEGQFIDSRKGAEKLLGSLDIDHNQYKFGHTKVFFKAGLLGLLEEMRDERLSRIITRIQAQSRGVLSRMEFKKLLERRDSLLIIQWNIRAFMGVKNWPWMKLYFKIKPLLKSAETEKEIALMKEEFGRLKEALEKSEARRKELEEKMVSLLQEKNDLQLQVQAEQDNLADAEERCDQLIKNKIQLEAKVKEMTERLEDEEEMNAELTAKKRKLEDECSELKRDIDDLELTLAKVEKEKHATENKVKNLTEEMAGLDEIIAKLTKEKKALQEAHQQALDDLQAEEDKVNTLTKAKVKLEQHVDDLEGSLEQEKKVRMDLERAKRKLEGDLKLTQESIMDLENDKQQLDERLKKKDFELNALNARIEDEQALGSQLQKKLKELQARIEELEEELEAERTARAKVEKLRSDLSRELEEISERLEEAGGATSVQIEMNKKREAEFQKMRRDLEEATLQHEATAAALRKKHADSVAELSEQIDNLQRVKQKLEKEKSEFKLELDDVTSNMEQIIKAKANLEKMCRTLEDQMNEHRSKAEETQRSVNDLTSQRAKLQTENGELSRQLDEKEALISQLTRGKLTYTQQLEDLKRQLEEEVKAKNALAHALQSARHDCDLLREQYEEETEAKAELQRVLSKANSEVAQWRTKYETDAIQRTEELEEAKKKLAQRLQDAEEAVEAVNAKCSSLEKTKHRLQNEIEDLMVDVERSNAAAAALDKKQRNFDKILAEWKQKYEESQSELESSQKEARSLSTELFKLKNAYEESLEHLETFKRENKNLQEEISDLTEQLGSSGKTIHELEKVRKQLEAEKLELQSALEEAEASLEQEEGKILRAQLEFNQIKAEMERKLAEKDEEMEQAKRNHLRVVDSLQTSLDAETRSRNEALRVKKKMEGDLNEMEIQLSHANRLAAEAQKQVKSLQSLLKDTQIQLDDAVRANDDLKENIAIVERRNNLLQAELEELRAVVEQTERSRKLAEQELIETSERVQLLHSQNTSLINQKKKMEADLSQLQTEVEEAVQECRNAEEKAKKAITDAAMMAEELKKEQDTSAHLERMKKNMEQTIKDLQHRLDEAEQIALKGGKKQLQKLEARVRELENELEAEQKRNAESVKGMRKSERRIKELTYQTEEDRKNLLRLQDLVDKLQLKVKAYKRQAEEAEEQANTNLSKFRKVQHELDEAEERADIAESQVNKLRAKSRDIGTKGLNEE
# Sequence (P85100 whole entry partner): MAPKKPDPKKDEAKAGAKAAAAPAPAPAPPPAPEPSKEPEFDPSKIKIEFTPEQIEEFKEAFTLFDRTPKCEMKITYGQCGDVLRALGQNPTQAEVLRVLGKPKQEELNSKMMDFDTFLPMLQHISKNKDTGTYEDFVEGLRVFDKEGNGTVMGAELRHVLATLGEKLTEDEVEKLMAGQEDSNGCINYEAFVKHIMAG
# Sequence (Q3SZE5 whole entry partner): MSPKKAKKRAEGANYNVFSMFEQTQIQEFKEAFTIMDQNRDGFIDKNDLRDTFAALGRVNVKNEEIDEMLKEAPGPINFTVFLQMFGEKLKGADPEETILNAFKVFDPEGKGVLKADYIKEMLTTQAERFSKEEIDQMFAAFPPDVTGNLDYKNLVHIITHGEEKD
# procedure summary: Skinned bovine cardiac myofibril ATPase assay (PK/LDH-coupled)
# conditions used: Ca2+ activating to 75% of maximal rate, read-out: CDMF75 IC50
# Experimental: To evaluate the effect of compounds on the ATPase activity of full-length cardiac myosin in the context of the native sarcomere, skinned myofibril assays were performed. […] Small molecule agents were assessed for their ability to inhibit the steady-state ATPase activity of bovine cardiac myofibrils using pyruvate kinase and lactate dehydrogenase (PK/LDH)-coupled enzyme system. This assay regenerates myosin-produced ADP into ATP by oxidizing NADH, producing an absorbance change at 340 nm. […]
Kindly provide the numeric value in nM only, without the unit symbol.

Prompt line: Please report the recorded IC50 for COCc1nc(-c2ccc3c(c2)CC[C@H]3NC(=O)c2cccc(CO)c2)no1 [Compound 668] .
Response line: 2200

Prompt line: # iterate: "Cc1cnc(-c2ccc3c(c2)CC[C@H]3NC(=O)c2ccnn2C)s1"
Response line: 2900

Prompt line: # iterate: "C[C@@H](CO)c1nc(-c2ccc3c(c2)CC[C@H]3NC(=O)c2ccnn2C)no1"
Response line: 34700

Prompt line: # iterate: Cc1c(C(=O)NC2COc3cc(-c4noc(C(F)F)n4)ccc32)cnn1C (centres unmarked)
Response line: 3300

Prompt line: # iterate: "CCc1nc(-c2ccc3c(c2)CC[C@H]3NC(=O)c2cc(C)on2)no1"
Response line: 2800

Prompt line: # iterate: "CCc1noc(-c2ccc3c(c2)CC[C@H]3NC(=O)c2cnn(C)c2C)n1"
Response line: 2600

Prompt line: # iterate: "Cc1noc(-c2ccc3c(c2)CC[C@H]3NC(=O)c2cnc(C)o2)n1"
Response line: 10500

====

# experimental target: bovine cardiac myofibrils (full-length cardiac myosin ATPase in the native sarcomere) (Bos taurus (Bovine))
# procedure summary: Skinned bovine cardiac myofibril ATPase assay (PK/LDH-coupled)
# Type: biochemical
# conditions used: Ca2+ activating to 75% of maximal rate, concentration giving 15% inhibition
Give CDMF75 IC15 for every item shown.
Kindly provide the numeric value in µM only, without the unit symbol.

Prompt line: Please report the recorded CDMF75 IC15 for Cc1nc(-c2ccc3c(c2)CCC3NC(=O)c2c[nH]nc2C)no1 (stereo not shown) .
Response line: 1.4

Prompt line: # iterate: "COCc1nc(-c2ccc3c(c2)CC[C@H]3NC(=O)c2cnc(C)s2)no1"
Response line: 1.1

Prompt line: # iterate: "C[C@@H](CO)c1nc(-c2ccc3c(c2)CC[C@H]3NC(=O)c2ccnn2C)no1"
Response line: 7.9

Prompt line: # iterate: "CCc1nc(-c2ccc3c(c2)CC[C@H]3NC(=O)c2cc(CO)ccc2C)no1"
Response line: 4.6

====

# experimental target: bovine cardiac myofibrils (full-length cardiac myosin ATPase in the native sarcomere) (Bos taurus (Bovine))
# procedure summary: Skinned bovine cardiac myofibril ATPase assay (PK/LDH-coupled)
# conditions used: Ca2+ activating to 75% of maximal rate, read-out: CDMF75 IC50
quantity measured: pIC50
Formally, pIC50 is defined as -log10 of the concentration c, with c in mol/L.

Prompt line: Please report the recorded pIC50 for COCc1nc(-c2ccc3c(c2)OC[C@H]3NC(=O)c2cccc(CO)c2)no1 [Compound 711] .
Response line: 5.55

Prompt line: # iterate: "Cc1cc(-c2ccc3c(c2)CC[C@H]3NC(=O)c2cn[nH]c2C)no1"
Response line: 5.60

Prompt line: # iterate: "CCc1nc(-c2ccc3c(c2)CC[C@H]3NC(=O)c2ccccn2)no1"
Response line: 5.80

Prompt line: # iterate: "CCc1cc(-c2ccc3c(c2)CC[C@H]3NC(=O)c2cnc(C)o2)no1"
Response line: 5.77

Prompt line: # iterate: O=C(Nc1ccccc1)NC1CCc2cc(-c3noc(C(F)F)n3)ccc21 (stereo not drawn)
Response line: 4.66

Prompt line: # iterate: "COCCc1nc(-c2ccc3c(c2)CC[C@H]3NC(=O)c2cnn(C)c2)no1"
Response line: 4.41

Prompt line: # iterate: Cc1nc(C(=O)NC2CCc3cc(-c4noc(C)n4)ccc32)no1 (stereo not drawn)
Response line: 4.80

Prompt line: # iterate: "Cc1cc(C(=O)N[C@@H]2CCc3cc(-c4noc(C(F)F)n4)ccc32)ncn1"
Response line: 5.34

Prompt line: # iterate: Cc1ncoc1C(=O)NC1CCc2cc(-c3noc(C(F)F)n3)ccc21 (stereo not drawn)
Response line: 5.70

Prompt line: # iterate: "CCc1nc(-c2ccc3c(c2)CC[C@H]3NC(=O)c2cc(C(C)=O)ccn2)no1"
Response line: 4.98

Prompt line: # iterate: O=C(N[C@@H]1COc2cc(-c3noc(C(F)F)n3)ccc21)c1ccnc(CO)c1 [Compound 710]
Response line: 5.72

Prompt line: # iterate: "CCc1nc(-c2ccc3c(c2)CC[C@H]3NC(=O)c2nnn(Cc3ccccc3)n2)no1"
Response line: 5.96

Prompt line: # iterate: Cc1nc(-c2ccc3c(c2)CCC3NC(=O)c2nocc2C)no1 (stereo not drawn)
Response line: 5.05

Prompt line: # iterate: "Cc1cc(-c2ccc3c(c2)OC[C@H]3NC(=O)c2ccnn2C)no1"
Response line: 5.80

Prompt line: # iterate: "COC(=O)N[C@@H]1CCc2cc(-c3nc(C4CC4)no3)ccc21"
Response line: 5.68
